System: Fibroblast
Assay: Multiplex assay against human fibroblast
Assay type: toxicity, cell-based
Conditions: 48 h, 10 µM, compound concentration 10 uM, replicate 1
Value Kind: Population Normal (%)
A number alone suffices; assume %.

In the examples that follow, each entry is paired with its recorded Population Normal (%).
COc1cc2nc(N3CCN(C(=O)COc4c(OC)cccc4C(C)C)CC3)nc(N)c2cc1OC.Cl.Cl    47
Nc1nc(-c2ccco2)c2cnn(Cc3ccccc3F)c2n1    90

Query Cc1ccc(OCC(O)C(C)NC(C)C)c2c1CCC2.Cl (stereo not given) yields Population Normal (%) of 98

Query CCn1c(-c2nc3cc(C(=O)N4CCCC(N)C4)ccc3n2C)cc2ccccc21.Cl (stereo not given) yields Population Normal (%) of 96

Query CN(C)C/C=C/C(=O)Nc1ccc(C(=O)N2CCCC(Nc3ncc(Cl)c(-c4c[nH]c5ccccc45)n3)C2)cc1 (stereo not given) yields Population Normal (%) of 85

Query COc1cc(Nc2ncc3c(n2)-c2ccc(Cl)cc2C(c2c(F)cccc2OC)=NC3)ccc1C(=O)O yields Population Normal (%) of 76

Query O=C(NCCNCC(O)COc1ccc(O)cc1)N1CCOCC1.O=C(NCCNCC(O)COc1ccc(O)cc1)N1CCOCC1.O=C(O)/C=C/C(=O)O (stereo not given) [XAMOTEROL FUMARATE] yields Population Normal (%) of 95

Query CC(C)(O)C(=O)N1CCN(c2ccc(C(F)(F)F)c(C3=C(c4c[nH]c5ccccc45)C(=O)NC3=O)c2)CC1 yields Population Normal (%) of 87

Query S=C(NCCCc1c[nH]cn1)NCCCN(Cc1ccc(Cl)c(Cl)c1)c1ccc(Br)cn1 yields Population Normal (%) of 93

Query Nc1nc(CC(=O)Nc2ccc(CCNC[C@H](O)c3ccccc3)cc2)cs1 yields Population Normal (%) of 95

====

As shown below, each of these compounds has a reported Population Tubulin-Different-Phenotype (%) value.
Tested on: HEK-293T
Assay: Multiplex assay against HEK293T
Type: toxicity, cell-based
Conditions: human, 24 h, 1 µM, compound concentration 1 uM, replicate 1
Kindly format the answer as number then unit.

COc1cc(OC2CCN(C(C)=O)CC2)ccc1C(=O)N1CCC(N2C(=O)OCc3ccccc32)CC1    17%
CC(C)(C)c1ccc(CSc2cnn(C(C)(C)C)c(=O)c2Cl)cc1    27%
CN(C)C(=O)Cn1cc(-c2ccc(-c3nnc4ccccn34)cc2)cn1    22%

Query COc1cc2nc(N3CCN(C(=O)c4ccco4)CC3)nc(N)c2cc1OC.Cl [PRAZOSIN HYDROCHLORIDE] yields Population Tubulin-Different-Phenotype (%) of 10%

Query CC(C)C[C@H](CO)Nc1nc(S[C@@H](C)c2ccccc2)nc2nc(N)sc12 yields Population Tubulin-Different-Phenotype (%) of 16%

Query CC(C)(O)C(=O)N1CCN(c2ccc(C(F)(F)F)c(C3=C(c4c[nH]c5ccccc45)C(=O)NC3=O)c2)CC1 yields Population Tubulin-Different-Phenotype (%) of 19%

Query COCCn1c(C)c(C)s/c1=N\C(=O)C1C(C)(C)C1(C)C yields Population Tubulin-Different-Phenotype (%) of 20%

====

As shown below, each of these compounds has a reported Population Hoechst High Intensity Objects (%) value.
System: Fibroblast
Assay: Multiplex assay against human fibroblast
Type: toxicity, cell-based
Settings: 12 h, 10 µM, compound concentration 10 uM, replicate 2
A number alone suffices; assume %.

CN1CCN2c3ccccc3Cc3ccccc3C2C1.Cl (centres undefined) [MIANSERIN HYDROCHLORIDE]    6

Query CC(C)(C)c1ccc(CSc2cnn(C(C)(C)C)c(=O)c2Cl)cc1 yields Population Hoechst High Intensity Objects (%) of 1

Query COCCCN1CCC(NC(=O)c2cc(Cl)c(N)c3c2OCC3)CC1 [PRUCALOPRIDE] yields Population Hoechst High Intensity Objects (%) of 11

====

As shown below, each of these molecules has a reported Population Normal (%) value.
System: Fibroblast
Assay: Multiplex assay against human fibroblast
Type: toxicity, cell-based
Conditions: 12 h, 10 µM, compound concentration 10 uM, replicate 2
A number alone suffices; assume %.

In the examples that follow, each entry is paired with its recorded Population Normal (%).
CCc1nn2c(C)cc(C)nc2c1Cc1ccc(-c2nnc(C3CCNCC3)o2)cc1    96
CCCCC[C@H](O)/C=C/[C@H]1[C@H](O)CC(=O)[C@@H]1CCCCCCC(=O)O [ALPROSTADIL]    83
CCn1c(-c2nc3cc(C(=O)N4CCCC(N)C4)ccc3n2C)cc2ccccc21.Cl (centres undefined)    96
Cc1cc(O)c(-c2ccc([C@@H](C)CN(C)C)cc2)c2c1[nH]c(=O)c1sccc12    94
Nc1nc(-c2ccco2)c2cnn(Cc3ccccc3F)c2n1    89
Cc1cc(NC(=O)NCCN2CCC(O)(Cc3ccccc3)CC2)c2ccccc2n1 [PALOSURAN]    93

Query Cc1c(Cc2ccc3ccccc3n2)c2cc(F)ccc2n1CC(=O)O [TIMAPIPRANT] yields Population Normal (%) of 95

Query Nc1nc(CC(=O)Nc2ccc(CCNC[C@H](O)c3ccccc3)cc2)cs1 [MIRABEGRON] yields Population Normal (%) of 94

Query COC(c1ccccc1)(c1ccccc1)[C@H](Oc1nc(C)cc(C)n1)C(=O)O [AMBRISENTAN] yields Population Normal (%) of 95

Query OCCCNc1cc(-c2ccnc(Nc3cccc(Cl)c3)n2)ccn1 yields Population Normal (%) of 93

Query C[C@@H]1CC(=O)Nc2cccc(-c3ccc4c(c3)c(-c3cnn(C)c3)nn4C)c2N1 yields Population Normal (%) of 93

Query N[C@](CC1c2ccccc2Oc2ccccc21)(C(=O)O)[C@H]1C[C@@H]1C(=O)O yields Population Normal (%) of 92

====

Test system: Fibroblast
Experiment: Multiplex assay against human fibroblast
Type: toxicity, cell-based
Conditions: 48 h, 1 µM, compound concentration 1 uM, replicate 2
Rule: Population Pyknosed Nuclei (%) under 10% gives 0.0, otherwise 1.0.

Previously resolved entries follow.
Cc1cc(NC(=O)NCCN2CCC(O)(Cc3ccccc3)CC2)c2ccccc2n1 [PALOSURAN]    1.0
CN1CCN(c2ccc(Nc3c4ccccc4nc4ccccc34)cc2)CC1.Cl.Cl.O    0.0
CCn1c(-c2nc3cc(C(=O)N4CCCC(N)C4)ccc3n2C)cc2ccccc21.Cl (configuration not stated)    1.0
COc1cc(Nc2ncc3c(n2)-c2ccc(Cl)cc2C(c2c(F)cccc2OC)=NC3)ccc1C(=O)O [ALISERTIB]    1.0
C=CCN1C[C@H](C(=O)N(CCCN(C)C)C(=O)NCC)C[C@@H]2c3cccc4[nH]cc(c34)C[C@H]21 [CABERGOLINE]    1.0

Check the entry CN1C[C@H](C(=O)N[C@]2(C)O[C@@]3(O)[C@@H]4CCCN4C(=O)[C@H](Cc4ccccc4)N3C2=O)C[C@@H]2c3cccc4[nH]cc(c34)C[C@H]21.CS(=O)(=O)O [DIHYDROERGOTAMINE MESYLATE] : does Population Pyknosed Nuclei (%) equal or exceed 10%?
1.0

====

As shown below, each of these molecules has a reported Population Pyknosed Nuclei (%) value.
System: Fibroblast
Assay: Multiplex assay against human fibroblast
Type: toxicity, cell-based
Settings: 24 h, 1 µM, compound concentration 1 uM, replicate 2
A number alone suffices; assume %.

In the examples that follow, each entry is paired with its recorded Population Pyknosed Nuclei (%).
CSc1nc(NC2CCCC2)c([N+](=O)[O-])c(NC2CCCC2)n1    23
CN1C[C@H](C(=O)N[C@]2(C)O[C@@]3(O)[C@@H]4CCCN4C(=O)[C@H](Cc4ccccc4)N3C2=O)C[C@@H]2c3cccc4[nH]cc(c34)C[C@H]21.CS(=O)(=O)O [DIHYDROERGOTAMINE MESYLATE]    13
CN(C)C/C=C/C(=O)Nc1ccc(C(=O)N2CCCC(Nc3ncc(Cl)c(-c4c[nH]c5ccccc45)n3)C2)cc1 (configuration not stated)    23
CCn1c(-c2nc3cc(C(=O)N4CCCC(N)C4)ccc3n2C)cc2ccccc21.Cl (configuration not stated)    17

The molecule CCc1nn2c(C)cc(C)nc2c1Cc1ccc(-c2nnc(C3CCNCC3)o2)cc1 on Fibroblast: Population Pyknosed Nuclei (%) was 23

The molecule CCCCCCNC(=O)Nc1ccc(S(=O)(=O)Nc2ccc(CCNC[C@H](O)COc3ccc(O)cc3)cc2)cc1 on Fibroblast: Population Pyknosed Nuclei (%) was 13

The molecule COC(c1ccccc1)(c1ccccc1)[C@H](Oc1nc(C)cc(C)n1)C(=O)O on Fibroblast: Population Pyknosed Nuclei (%) was 23

The molecule COc1cc(C(=O)N2CC[C@@H](O)[C@@H](N)C2)cc2nc(-c3cc4ccccc4n3CC3CC3)n(C)c12.Cl on Fibroblast: Population Pyknosed Nuclei (%) was 31

====

Test system: U2OS
Assay: Multiplex assay against U2OS
Type: toxicity, cell-based
Details: human, 24 h, 1 µM, compound concentration 1 uM, replicate 1
Value Kind: Population Tubulin-Different-Phenotype (%)
A number alone suffices; assume %.

Query COCCn1c(C)c(C)s/c1=N\C(=O)C1C(C)(C)C1(C)C yields Population Tubulin-Different-Phenotype (%) of 2

Query CN1CCN2c3ccccc3Cc3ccccc3C2C1.Cl (stereo not given) [MIANSERIN HYDROCHLORIDE] yields Population Tubulin-Different-Phenotype (%) of 4

Query COc1c(Nc2ccc(S(C)(=O)=O)nc2C)ncnc1OC1CCN(C(=O)OC(C)C)CC1 yields Population Tubulin-Different-Phenotype (%) of 3

Query COc1cc(C(=O)N2CC[C@@H](O)[C@@H](N)C2)cc2nc(-c3cc4ccccc4n3CC3CC3)n(C)c12.Cl yields Population Tubulin-Different-Phenotype (%) of 12

Query CCn1c(-c2nc3cc(C(=O)N4CCCC(N)C4)ccc3n2C)cc2ccccc21.Cl (stereo not given) yields Population Tubulin-Different-Phenotype (%) of 3

Query Nc1nc(CC(=O)Nc2ccc(CCNC[C@H](O)c3ccccc3)cc2)cs1 yields Population Tubulin-Different-Phenotype (%) of 3

Query CN(C)C(=O)Cn1cc(-c2ccc(-c3nnc4ccccn34)cc2)cn1 yields Population Tubulin-Different-Phenotype (%) of 1

Query CCc1nn2c(C)cc(C)nc2c1Cc1ccc(-c2nnc(C3CCNCC3)o2)cc1 yields Population Tubulin-Different-Phenotype (%) of 3
